# target system: the molecule itself
# method description: AUC; sedimentation equilibrium at different protein concentrations and rotor speeds, 20 °C, global fit to a monomer-dimer self-association model; dimer to monomers
property label: pKd
Just so you know, pKd here is -log10 of the concentration in molar units; reply with that number alone.

Return value of pKd for input R1-WT, isolated RING domain of rhesus TRIM5α (domain or fragment, rhesus monkey, UniProt Q0PF16 2-90, looked up, TRIM5α RING domain, rhesus monkey, residues 2-90 (methods); the results give residues 2-89; Tags removed by TEV protease; 15N-labelled for NMR; also called RING monomer; isolated RING monomer; source: bacteria, purified (Ni-NTA, Superdex 75); not shown: His6, N-terminal, cleaved; GB1, N-terminal, cleaved) ASGILLNVKEEVTCPICLELLTEPLSLHCGHSFCQACITANHKKSMLYKEGERSCPVCRISYQPENIQPNRHVANIVEKLREVKLSPEE , no commentary.
4.20
